System: UO-31 renal
Experimental details: NCI tumour cell line growth inhibition, 48 h; in the data active = GI50 below about 0.43 µM; inactive = the rest
Allowed answers: 1 (yes) for active, 0 (no) for inactive

Query: // return assay outcome for CCN(CC)CCCC(C)Nc1cnc(C(=O)Nc2ccc(Cl)c3cccnc23)cn1 (stereo unspecified)
Response: 0 (no)

Query: // return assay outcome for COC(=O)NC1C(C)OC(OC2C/C=C(/C)C3C=CC4C(OC5CC(OC6CC(O)C(OC7CC(O)C(OC)C(C)O7)C(C)O6)C(O)C(C)O5)C(C)CC(C)C4C3(C)/C(O)=C3\C(=O)OC4(CC(C)C(CO)=CC4/C=C\2C)C3=O)CC1(C)[N+](=O)[O-] (stereo unspecified)
Response: 0 (no)

Query: // return assay outcome for Cn1ccnc1C(=O)/C=C/c1ccc(C(=O)Nc2ccc(Cl)cc2)cc1
Response: 0 (no)

Query: // return assay outcome for CCOc1cccc(/C=N/NC(=O)c2ccc(Nc3ccnc(C(F)(F)F)c3)cc2)c1O
Response: 0 (no)

Query: // return assay outcome for N#C/C(=C\c1ccc(-c2ccc(Cl)cc2)o1)C(=O)Nc1ncc(Cc2ccc(Cl)cc2)s1
Response: 0 (no)

Query: // return assay outcome for Cc1cc(N2CCCCC2)nc(N(CCCNc2ccnc3cc(Cl)ccc23)Cc2ccco2)n1
Response: 0 (no)

Query: // return assay outcome for Cc1nn(-c2nc3ccccc3s2)c(C)c1Oc1ccccc1O
Response: 0 (no)

Query: // return assay outcome for C[n+]1c(/C=C\c2ccc(Cl)cc2)ccc2ccccc21
Response: 0 (no)

Query: // return assay outcome for COc1cc(C(=O)c2ccc3c(c2)OCO3)cc(OC)c1OC
Response: 0 (no)

Query: // return assay outcome for O=c1c2cccc(Cl)c2sc2c(NCCCNCCO)nc3ccccc3c12
Response: 0 (no)

Query: // return assay outcome for Cn1cncc1[C@@](N)(c1ccc(Cl)cc1)c1ccc2c(c1)c(-c1cccc(Cl)c1)cc(=O)n2C
Response: 0 (no)

Query: // return assay outcome for COc1ccc2nc(-c3cc(-c4cc(OC)c(OC)c(OC)c4)n[nH]3)[nH]c2c1
Response: 0 (no)

Query: // return assay outcome for O=C(Nc1ccccc1O)c1cccc(NC2=C(Cl)C(=O)N(Cc3ccccc3)C2=O)c1
Response: 0 (no)

Query: // return assay outcome for O=[N+]([O-])c1ccc(Br)c([N+](=O)[O-])c1
Response: 1 (yes)

Query: // return assay outcome for COc1cc(-c2nc(Nc3nc4ccccc4[nH]3)nc(N)c2C#N)cc(OC)c1OC
Response: 0 (no)

Query: // return assay outcome for CC1=C(C(=O)Nc2ccc(F)c(Cl)c2)C(c2ccccc2Cl)NC(=S)N1 (stereo unspecified)
Response: 0 (no)

====

I'd appreciate it if you could supply TGI values for the items below.
Tested on: UO-31 renal
Experimental details: NCI tumour cell line growth inhibition, 48 h
// return numeric value only (unit: µM, not printed)

Observed TGI on UO-31 renal, entry CCN(CC)CC(=O)Nc1c(C(N)=O)nnn1Cc1cc(Cl)c(C(=O)c2ccc(Cl)cc2)c(Cl)c1 , equals 31.2

Observed TGI on UO-31 renal, entry CC1=CC(=NC(=O)CBr)C=C/C1=N\S(=O)(=O)c1ccccc1 , equals 12.6

Observed TGI on UO-31 renal, entry C/C=C/c1c(O)c(=O)c2c(OC)cc(OC)c3c4c(OC)cc(OC)c5c(=O)c(O)c(/C=C/C)c(c1c23)c54 , equals 6.33

Observed TGI on UO-31 renal, entry CCC[CH2][Sn]1([CH2]CCC)[O]C(=O)c2cc(I)cc(I)c2[O]1 , equals 2.82
